This collection of values is drawn from the RepoRT retention time repository (doi:10.1016/j.foodchem.2018.09.045).

- assay: RP, Thermo Scientific Syncronis C18, 100 × 2.1 mm, 1.7 µm, 0.3 mL/min, estimated dead time 0.73 min; A: water + 0.1% acetic acid; B: acetonitrile + 0.1% acetic acid; gradient (min/%B) 0/5 1/5 16/95
- experimental-setup: stereoisomer not certain
observation-type: LC retention time (min)

>  <compound>
COc1cc(C=CC(=O)O)ccc1O

>  <LC retention time / min>
7.04

$$$$
>  <compound>
O=C(O)c1cc(O)ccc1O

>  <LC retention time / min>
5.48

$$$$
>  <compound>
CC1OC(Oc2c(-c3ccc(O)c(O)c3)oc3cc(O)cc(O)c3c2=O)C(O)C(O)C1O (stereo not drawn)

>  <LC retention time / min>
7.17

$$$$
>  <compound>
COc1cc(C=CC(=O)O)cc(OC)c1O

>  <LC retention time / min>
7.02

$$$$
>  <compound>
COc1ccc(-c2cc(=O)c3c(O)cc(O)cc3o2)cc1

>  <LC retention time / min>
12.2

$$$$

[A] O=C(C=Cc1ccc(O)c(O)c1)OC1CC(O)(C(=O)O)CC(O)C1O (stereo not drawn)
[B] O=c1c(O)c(-c2ccc(O)c(O)c2)oc2cc(O)cc(O)c12
Please compare: A and B . Report which one has the smaller LC retention time value. // return label of chosen record A
(A: 5.26 min, B: 8.24 min)

[A] O=C(O)C=Cc1ccc(O)cc1
[B] O=c1c(O)c(-c2ccccc2)oc2cc(O)cc(O)c12
[C] O=C(O)c1ccc(O)c(O)c1
Rank entries according to their LC retention time, from the largest number down. Show the ranking through the labels, in the order asked for. B, A, C

[I] O=C1CC(c2ccc(O)c(O)c2)Oc2cc(O)cc(O)c21 (stereo not drawn)
[II] O=C(O)c1ccc(O)cc1
Pick one: I or II . Which one has the lower reported LC retention time? Give the label of your selection. II
(II: 5.41 min, I: 8.59 min)
